Molecular target: TP-receptor (vascular, TPVASC) (Rattus norvegicus, UniProt P34978)
Construct: measured in vitro in isolated smooth muscle preparations; from tissue; host or cells: rings of isolated rat thoracic aorta
Sequence (P34978 1-341): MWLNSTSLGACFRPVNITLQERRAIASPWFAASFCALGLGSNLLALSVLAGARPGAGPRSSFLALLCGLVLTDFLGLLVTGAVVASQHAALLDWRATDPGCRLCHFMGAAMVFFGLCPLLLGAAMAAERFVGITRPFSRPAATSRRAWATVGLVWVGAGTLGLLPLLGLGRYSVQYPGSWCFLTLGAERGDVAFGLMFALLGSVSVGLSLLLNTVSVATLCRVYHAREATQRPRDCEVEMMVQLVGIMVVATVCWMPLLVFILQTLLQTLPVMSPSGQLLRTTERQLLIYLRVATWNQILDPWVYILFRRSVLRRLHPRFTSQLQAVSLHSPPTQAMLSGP
Assay: TP-vasoconstrictor activity: contraction of rings of isolated rat thoracic aorta, without or with SQ29,548
Conditions: Table 1; read-out: EC50 at TPVASC (Rat Aorta)
READOUT_KIND: pEC50
One number for each entry, as −log10 of the molar value.

Give me pEC50 for each of these molecules, listed below.
1. CCCCCC(O)/C=C/C1C2CC(OC(=O)O2)C1C/C=C\CCCC(=O)O (stereo not shown) [Example 7]
2. CCCCC[C@H](O)/C=C/[C@@H]1[C@@H](C/C=C\CCCCO)[C@@H]2C[C@H]1OC(=O)O2 [Example 4]
3. CCCCCC(O)/C=C/C1C2CC(OC(=O)O2)C1C/C=C\CCCC(N)=O (stereo not shown) [Example 15]

1: 9.64; 2: 9.00; 3: 7.24

Need pEC50 of CCCCCC(O)/C=C/C1C2CC(OC(=O)O2)C1C/C=C\CCCC(=O)NC(C)C (stereo not shown) [Example 17] , thanks.
6.49
